- Test system: mPer2Luc MEF
- Test description: PER2::LUC luminescence relative to vehicle control (fold of vehicle); higher = higher PER2::LUC reporter signal
- Test context: time after treatment 30 h; 10 µM
The full ranking holds about 5,300 compounds; the median of “PER2::LUC luminescence relative to vehicle control” is about 0.96, and the highest 2% start at about 1.3. The entries come from a sample that favours the highest values as a whole.
Items are presented alongside their recorded PER2::LUC luminescence.
Property name: PER2::LUC luminescence

{"Molecule": "CCOC(=O)[N-]c1c[n+](N2CCOCC2)no1", "Property name": "PER2::LUC luminescence", "Result number": 1.74}
{"Molecule": "COc1cc(O)c2c(=O)cc(-c3ccc(O)cc3)oc2c1", "Property name": "PER2::LUC luminescence", "Result number": 1.32}
{"Molecule": "COC(=O)CC1CC(c2ccc(O)cc2)=NO1 (stereo not given)", "Property name": "PER2::LUC luminescence", "Result number": 1.75}
{"Molecule": "CCOc1cc2c(c(F)c1OCC)C(=N)N(CC(=O)c1cc(N3CCOCC3)c(OC)c(C(C)(C)C)c1)C2", "Property name": "PER2::LUC luminescence", "Result number": 0.117}
{"Molecule": "CN(C)[C@@H]1c2onc(OCc3ccccc3)c2C(=O)[C@@]2(O[Si](C)(C)C(C)(C)C)C(=O)C=CC[C@@H]12", "Property name": "PER2::LUC luminescence", "Result number": 0.75}
{"Molecule": "O=c1cc(-c2cc(O)c(O)c(O)c2)oc2cc(O)cc(O)c12", "Property name": "PER2::LUC luminescence", "Result number": 0.941}
{"Molecule": "COc1ccc(-c2cc(=O)c3c(O)c(OC)c(OC)c(OC)c3o2)cc1", "Property name": "PER2::LUC luminescence", "Result number": 1.16}
{"Molecule": "O=c1cccc2ccc(O)c(O)c2c1O", "Property name": "PER2::LUC luminescence", "Result number": 0.83}
{"Molecule": "O=C(O)[C@@H]1C[C@H](CP(=O)(O)O)CCN1", "Property name": "PER2::LUC luminescence", "Result number": 0.992}
{"Molecule": "COc1ccc(-c2cc(=O)c3c(O)cc(OC)cc3o2)cc1", "Property name": "PER2::LUC luminescence", "Result number": 1.46}
{"Molecule": "CN1c2ccccc2C(=O)N2CCc3c([nH]c4ccccc34)C21 (stereo in doubt)", "Property name": "PER2::LUC luminescence", "Result number": 0.628}
{"Molecule": "CC1(C)O[C@@H]2C[C@H]3[C@@H]4C[C@H](F)C5=CC(=O)C=C[C@]5(C)[C@@]4(F)[C@@H](O)C[C@]3(C)[C@]2(C(=O)CO)O1", "Property name": "PER2::LUC luminescence", "Result number": 1.15}
{"Molecule": "O=C(NCc1cccc(O)c1)c1cc2cc(F)ccc2[nH]1", "Property name": "PER2::LUC luminescence", "Result number": 0.986}
{"Molecule": "Cn1nnnc1SCC1=C(C(=O)O)N2C(=O)[C@@H](NC(=O)C(OC=O)c3ccccc3)[C@H]2SC1 (stereo not given in full)", "Property name": "PER2::LUC luminescence", "Result number": 0.705}
{"Molecule": "CCO/N=C1\\c2ccccc2-c2nc(C#N)c(C#N)nc21", "Property name": "PER2::LUC luminescence", "Result number": 0.619}
{"Molecule": "COc1cc(C(=O)O[C@H]2C[C@@H]3CC[C@]2(C)C3(C)C)ccc1O", "Property name": "PER2::LUC luminescence", "Result number": 1.19}
{"Molecule": "CC(C)(C)OC(=O)N1CCC(OCc2nc(-c3ccncc3)no2)CC1", "Property name": "PER2::LUC luminescence", "Result number": 0.843}
{"Molecule": "O=C(O)c1ccc2cc(-c3ccc(O)c(C45CC6CC(CC(C6)C4)C5)c3)ccc2c1", "Property name": "PER2::LUC luminescence", "Result number": 1.63}
{"Molecule": "CC(=O)OCC(=O)[C@@]12OC3(CCCC3)O[C@@H]1C[C@H]1[C@@H]3CCC4=CC(=O)C=C[C@]4(C)[C@@]3(F)[C@@H](O)C[C@@]12C", "Property name": "PER2::LUC luminescence", "Result number": 1.13}
{"Molecule": "CSC[C@H]1O[C@@H](n2cnc3c(N)ncnc32)[C@H](O)[C@@H]1O", "Property name": "PER2::LUC luminescence", "Result number": 0.773}

----------
Catalogue of compounds with associated PER2::LUC luminescence
- Test system: mPer2Luc MEF
- Test description: PER2::LUC luminescence relative to vehicle control (fold of vehicle); higher = higher PER2::LUC reporter signal
- Test context: time after treatment 30 h; 10 µM
In all, about 5,300 compounds were measured (“PER2::LUC luminescence relative to vehicle control”: median about 0.96, highest 2% from about 1.3 on). This is one part of a sample in which the highest values are shown more often than they occur.
Property name: PER2::LUC luminescence

{"Compound": "CCOC(=O)COc1ccc2c(=O)cc(-c3ccccc3)oc2c1", "Assay system": "mPer2Luc MEF", "Result number": 1.08}
{"Compound": "O=c1oc2ccc(O)cc2c2c1NCCC2", "Assay system": "mPer2Luc MEF", "Result number": 1.05}
{"Compound": "CCCCCCCC(=O)CCc1ccc(O)c(OC)c1", "Assay system": "mPer2Luc MEF", "Result number": 0.901}
{"Compound": "Nc1ncnc2c1c(-c1ccc(Oc3ccccc3)cc1)nn2[C@@H]1CCCNC1", "Assay system": "mPer2Luc MEF", "Result number": 0.62}
{"Compound": "COC(=O)C(O)CCn1cnc2c(N)ncnc21 (stereo not drawn)", "Assay system": "mPer2Luc MEF", "Result number": 0.999}
{"Compound": "COc1ccccc1-c1coc2cc(O)ccc2c1=O", "Assay system": "mPer2Luc MEF", "Result number": 1.04}
{"Compound": "O=c1c(-c2ccc(O)cc2)coc2cc(O[C@@H]3O[C@H](CO)[C@@H](O)[C@H](O)[C@H]3O)cc(O)c12", "Assay system": "mPer2Luc MEF", "Result number": 1.32}
{"Compound": "COc1ccc(-c2coc3cc(O)ccc3c2=O)c(OC)c1", "Assay system": "mPer2Luc MEF", "Result number": 1.05}
{"Compound": "CC(C)(O)c1ccccc1Cc1ccccc1", "Assay system": "mPer2Luc MEF", "Result number": 1.18}
{"Compound": "CC(=O)Nc1ccc(OC(=O)c2ccccc2O)cc1", "Assay system": "mPer2Luc MEF", "Result number": 1.02}
{"Compound": "O=C(O)CCC(=O)Nc1ccc(S(=O)(=O)Nc2nccs2)cc1", "Assay system": "mPer2Luc MEF", "Result number": 0.939}
{"Compound": "O=C(Nc1ccccc1)Nc1ccccc1", "Assay system": "mPer2Luc MEF", "Result number": 1.44}
{"Compound": "O=C(Nc1ccccc1)c1ccccc1O", "Assay system": "mPer2Luc MEF", "Result number": 1.08}
{"Compound": "OC[C@H]1O[C@@H](Oc2ccc(O)cc2)[C@H](O)[C@@H](O)[C@@H]1O", "Assay system": "mPer2Luc MEF", "Result number": 0.876}
{"Compound": "S=C(Nc1ccccc1)Nc1nccs1", "Assay system": "mPer2Luc MEF", "Result number": 1.58}
{"Compound": "O=C(O)c1ccccc1C(=O)Nc1ccc(S(=O)(=O)Nc2nccs2)cc1", "Assay system": "mPer2Luc MEF", "Result number": 0.892}
{"Compound": "O=c1cc(-c2ccc(O)cc2)oc2ccc(O)cc12", "Assay system": "mPer2Luc MEF", "Result number": 1.87}
{"Compound": "O=c1cc(-c2ccccc2)oc2c(O)c(O)ccc12", "Assay system": "mPer2Luc MEF", "Result number": 0.632}
{"Compound": "O=c1cc(-c2ccc(O)c(O[C@@H]3O[C@H](CO)[C@@H](O)[C@H](O)[C@H]3O)c2)oc2cc(O[C@@H]3O[C@H](CO)[C@@H](O)[C@H](O)[C@H]3O)cc(O)c12", "Assay system": "mPer2Luc MEF", "Result number": 1.04}
{"Compound": "O=c1cc(-c2ccccc2)oc2ccc(O)cc12", "Assay system": "mPer2Luc MEF", "Result number": 1.89}
{"Compound": "O=c1oc2cc(O)ccc2c2oc3cc(O)ccc3c12", "Assay system": "mPer2Luc MEF", "Result number": 1.13}
{"Compound": "CC1(C)[C@@H](O)CC[C@]2(C)[C@H]3C(=O)C=C4[C@H]5C[C@@](C)(C(=O)O)CC[C@]5(C)CC[C@@]4(C)[C@]3(C)CC[C@@H]12", "Assay system": "mPer2Luc MEF", "Result number": 0.899}
{"Compound": "Nc1ccc(C(=O)Oc2ccccc2)c(O)c1", "Assay system": "mPer2Luc MEF", "Result number": 1.54}
